# Procedure Details: molar heat capacity at constant pressure
# Study Conditions: 65 K; 101.33 kPa; Crystal; relaxation calorimetry
Mark Satisfied only when molar heat capacity at constant pressure stays strictly below 50 J/K/mol. Values equal to the cut-off are Not satisfied.

compound="O[C@H]1[C@H](O)[C@@H](O)[C@H](O)[C@@H](O)[C@H]1O [cis-1,2,3,5-trans-4,6-cyclohexanehexol]" assigned_class=Satisfied
compound=OC[C@@H](O)[C@H](O)[C@@H](O)CO assigned_class=Satisfied
compound=OC[C@@H](O)[C@@H](O)[C@H](O)[C@H](O)CO assigned_class="Not satisfied"
compound=OC[C@@H](O)[C@@H](O)CO assigned_class=Satisfied
